The entries below are paired with their reported IC50, DLL4-mediated HUVEC proliferation assay.
TARGET OF ASSAY: recombinant human DLL4 (C-terminally His-tagged extracellular domain, R&D Systems) (human, UniProt Q9NR61 25-522, biotinylated in the competition ELISA)
Sequence (Q9NR61 25-522): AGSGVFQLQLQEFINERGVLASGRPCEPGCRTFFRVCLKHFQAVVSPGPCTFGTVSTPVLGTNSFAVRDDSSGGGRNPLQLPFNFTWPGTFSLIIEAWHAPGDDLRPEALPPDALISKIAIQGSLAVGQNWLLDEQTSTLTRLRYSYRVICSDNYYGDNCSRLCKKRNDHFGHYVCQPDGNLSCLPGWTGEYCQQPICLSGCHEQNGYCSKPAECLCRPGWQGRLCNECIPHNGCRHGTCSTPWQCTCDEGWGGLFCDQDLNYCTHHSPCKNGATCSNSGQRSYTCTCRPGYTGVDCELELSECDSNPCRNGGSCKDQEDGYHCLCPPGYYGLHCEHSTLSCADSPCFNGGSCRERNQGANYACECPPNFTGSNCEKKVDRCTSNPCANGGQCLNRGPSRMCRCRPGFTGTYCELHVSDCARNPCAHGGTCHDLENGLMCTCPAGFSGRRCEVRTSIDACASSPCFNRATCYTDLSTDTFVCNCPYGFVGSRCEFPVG
ASSAY: cell-based or functional assay
Hi! Could you send only the number? It should be in nM, unit omitted.

Tell me the measured IC50, DLL4-mediated HUVEC proliferation assay of DLLBII136C07 (VHH, not shown: small tags and cut ends) VHH: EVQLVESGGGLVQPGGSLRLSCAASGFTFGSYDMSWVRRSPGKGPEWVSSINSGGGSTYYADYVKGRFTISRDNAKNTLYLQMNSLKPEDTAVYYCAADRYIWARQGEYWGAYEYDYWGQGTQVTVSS , please.
14.5

Tell me the measured IC50, DLL4-mediated HUVEC proliferation assay of DLLBII129B05 (VHH, not shown: small tags and cut ends) VHH: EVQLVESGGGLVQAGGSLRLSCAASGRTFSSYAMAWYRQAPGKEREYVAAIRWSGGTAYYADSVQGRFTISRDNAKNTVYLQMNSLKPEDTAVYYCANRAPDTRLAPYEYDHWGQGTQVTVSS , please.
3.7

Tell me the measured IC50, DLL4-mediated HUVEC proliferation assay of DLLBII018 (VHH, not shown: small tags and cut ends) VHH: EVQLVESGGGLVQPGGSLRLSCAASGRTFSSYAMAWYRQAPGKEREYVAAIRWSGGTAYYADSVKGRFTISRDNAKNTVYLQMNSLRPEDTAVYYCANRAPDTRLAPYEYDHWGQGTLVTVSS , please.
5.3

Tell me the measured IC50, DLL4-mediated HUVEC proliferation assay of DLLBII039 (VHH, not shown: small tags and cut ends) VHH: EVQLVESGGGLVQPGGSLRLSCAASGFTIGSYDMSWVRRAPGKGPEWVSSISSGGGSTYYADYVKGRFTISRDNAKNTLYLQMNSLRPEDTAVYYCAADRYIWARQGEYWGAYEYDYWGQGTLVTVSS , please.
14.4

Tell me the measured IC50, DLL4-mediated HUVEC proliferation assay of DLLBII036 (VHH, not shown: small tags and cut ends) VHH: EVQLVESGGGLVQPGGSLRLSCAASGFTFGSYDMSWVRRAPGKGPEWVSSISSGGGSTYYADYVKGRFTISRDNAKNTLYLQMNSLRPEDTAVYYCAADRYIWARQGEYWGAYEYDYWGQGTLVTVSS , please.
7.6
